test system: PPARg:RXRa 90nM:30nM, anti-RXR (NR concentration 90 nM, RXRa partner concentration 30 nM); test: PBM binding z-score (relative to random genomic background probes); higher = stronger binding; sequences stand for … in GC…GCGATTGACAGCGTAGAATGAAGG
measuredProperty: PBM binding z-score

{"chainSequence": "CCGAATAGGTTATGGGGCATTCAGGCAACGGTGA", "reported": 2.04}
{"chainSequence": "GCTGCTAGGTCAACTGATGCTCAGCTAAAGCTCG", "reported": 2.26}
{"chainSequence": "ACTAGCAGGCCAAGTTTTGGTCACTCAAACAAAG", "reported": -0.457}
{"chainSequence": "ATGTGTAGGTTATCGGGTCATTCAGTTTGCGCAT", "reported": 3.43}

* * *

test system: VDR homodimer (NR concentration 270 nM); assay: PBM binding z-score (relative to random genomic background probes); higher = stronger binding; sequences stand for … in GC…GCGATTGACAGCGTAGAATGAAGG
measuredProperty: PBM binding z-score

{"chainSequence": "GCTAGGTGGTCAGTAAAAGGTCACACACCGGTCG", "measuredProperty": "PBM binding z-score", "reported": 2.03}
{"chainSequence": "TCTCGGAGGACACGAAGGTCATAGCTTTCCAGAG", "measuredProperty": "PBM binding z-score", "reported": 3.09}
{"chainSequence": "ATCTCGAGGTAAGACTCAGTTCAGTGAAGAACGC", "measuredProperty": "PBM binding z-score", "reported": 1.13}
{"chainSequence": "GATACAGGGTCAGCTAGAGGCCAGAGTCTGGAAA", "measuredProperty": "PBM binding z-score", "reported": 0.522}
{"chainSequence": "TTACCAAGGTGAAGGTCGTTGACCCCTCTGTAGA", "measuredProperty": "PBM binding z-score", "reported": 1.51}
{"chainSequence": "CGTCCAAGGTCAATGCTAGGTCAGTGACAGCATT", "measuredProperty": "PBM binding z-score", "reported": 2.97}
{"chainSequence": "GCGACTGGGGCATCAGCAGGTTTCCATAACTTAA", "measuredProperty": "PBM binding z-score", "reported": 0.168}
{"chainSequence": "ATCTCTATGTAAGACTCAGTTCAGTGAAGAACGC", "measuredProperty": "PBM binding z-score", "reported": 1.16}
{"chainSequence": "TCTGATAGGTCAACGATGGTCAGCTAATCTGCTA", "measuredProperty": "PBM binding z-score", "reported": -0.032}
{"chainSequence": "ATCTCTAGGTAAAAGTTCAGTGATTCCCGAGGAT", "measuredProperty": "PBM binding z-score", "reported": 1.8}
{"chainSequence": "TCTGCTAGGTCAGTTGGTCAGCTTACGAGCTGCC", "measuredProperty": "PBM binding z-score", "reported": -0.597}
{"chainSequence": "CCGACTGGGGCAGGAAGGTTACCATACCATCCGG", "measuredProperty": "PBM binding z-score", "reported": -0.24}
{"chainSequence": "TTTAGCAGGCCAGAGGGTCACTCAAGAGGTACGG", "measuredProperty": "PBM binding z-score", "reported": 0.332}
{"chainSequence": "TCTCGGAGGACACGAAAGGTCAGAGGTCGACATC", "measuredProperty": "PBM binding z-score", "reported": 2.12}
{"chainSequence": "CCTACTGGGCCAAGGTCATCGATCAGTCAAAGCA", "measuredProperty": "PBM binding z-score", "reported": 2.38}
{"chainSequence": "TCATATAGGTAAAGGTGAAAATCGAACGATATGA", "measuredProperty": "PBM binding z-score", "reported": -0.256}
{"chainSequence": "CATACTGGGCCACGAAAGGTCATTGATTCAGTGA", "measuredProperty": "PBM binding z-score", "reported": 2.45}
{"chainSequence": "TCTGCTAGGTCAACGATAGTCAGCTAATCTGCTA", "measuredProperty": "PBM binding z-score", "reported": -0.234}
{"chainSequence": "TCTGCTAGGTCACCGATGGTCAGCTAATCTGCTA", "measuredProperty": "PBM binding z-score", "reported": -0.0284}
{"chainSequence": "CCTAGTTGGTCAGGAGGTCACTCACCGGATATGA", "measuredProperty": "PBM binding z-score", "reported": 2.45}
{"chainSequence": "GATACAGGGGCAGCTAGAGGCCAGAGTATGGAAA", "measuredProperty": "PBM binding z-score", "reported": -0.000725}
{"chainSequence": "CCGACTGGAGCATAAGGTTACCATAAGCCAGCCC", "measuredProperty": "PBM binding z-score", "reported": 0.144}
{"chainSequence": "CTACCAATGTGAACAAGGTCGTTGATTACTATTC", "measuredProperty": "PBM binding z-score", "reported": 2.32}
{"chainSequence": "GCAGTCAGGTGAAACGCAGGTAACTCAGGGTGGC", "measuredProperty": "PBM binding z-score", "reported": -0.682}
{"chainSequence": "ATCACTAGGTAAAAGTTCAGTGAATCCCGAGGAT", "measuredProperty": "PBM binding z-score", "reported": 1.8}
{"chainSequence": "TCATATAGGTAAATGCTAGGTGGAAGTCCGATCT", "measuredProperty": "PBM binding z-score", "reported": 0.0417}
{"chainSequence": "ATACCAAGGTGATCGCGAGGTCGTTGATACTAAC", "measuredProperty": "PBM binding z-score", "reported": 2.67}
{"chainSequence": "TAGCCTAGGTCAGACCGGGCCAGTATACGCTATA", "measuredProperty": "PBM binding z-score", "reported": -0.324}
{"chainSequence": "AGACAAAGTTCACTAGGTAACGTAAGATTCAGCT", "measuredProperty": "PBM binding z-score", "reported": 3.48}

* * *

Documented PBM binding z-score across a set of sequences
test system: RARa homodimer (NR concentration 270 nM); assay: PBM binding z-score (relative to random genomic background probes); higher = stronger binding; sequences stand for … in GC…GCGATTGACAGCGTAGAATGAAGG
measuredProperty: PBM binding z-score

{"chainSequence": "ACTATTAGTTGACTGAGGGCAACCGATACGACGC", "measuredProperty": "PBM binding z-score", "reported": 0.713}
{"chainSequence": "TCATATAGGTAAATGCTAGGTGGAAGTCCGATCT", "measuredProperty": "PBM binding z-score", "reported": 0.904}
{"chainSequence": "TCTTGTAGATCATTAGAGGTTAAGAAAGTGCGCT", "measuredProperty": "PBM binding z-score", "reported": 0.575}
{"chainSequence": "GCTATCAGTTGAAAGGGCAACCGAATGATTCTCG", "measuredProperty": "PBM binding z-score", "reported": -0.381}
{"chainSequence": "CCTACTGGGCCAAAAAGGTCATTGACGCCGATAA", "measuredProperty": "PBM binding z-score", "reported": 1.28}
{"chainSequence": "GCGACTAGGGCATCAGCAGGTTACCATAACTTAA", "measuredProperty": "PBM binding z-score", "reported": -0.519}
{"chainSequence": "CCTGCTAGGTCAGTGGTCAGCTAAAGCAGCTCGC", "measuredProperty": "PBM binding z-score", "reported": -0.82}
{"chainSequence": "GCTGCTAGGTCACCTGATGGTCAGCTAAAGCTCG", "measuredProperty": "PBM binding z-score", "reported": -0.925}
{"chainSequence": "TCATATAGGTCAACAGGTGAAAGTCCGTAAGTTA", "measuredProperty": "PBM binding z-score", "reported": 2.3}
{"chainSequence": "CGAACTAGGTCATTCACAGGACAGTGAATAGTAA", "measuredProperty": "PBM binding z-score", "reported": 0.779}
{"chainSequence": "AGTAGCAGGCCAAGTTTGGGTCACTCAAACAAAG", "measuredProperty": "PBM binding z-score", "reported": -0.486}
{"chainSequence": "TGAATGAGGTTATAAGATCAGGGAGCGTTGCAAA", "measuredProperty": "PBM binding z-score", "reported": -0.286}
{"chainSequence": "CGTCAAAGTTTAACTAAGGTAACGTAAAGCACGC", "measuredProperty": "PBM binding z-score", "reported": 0.858}
{"chainSequence": "TATACAGGGTCAAAGGACAGAGTACGAATGTCGA", "measuredProperty": "PBM binding z-score", "reported": 1.66}
{"chainSequence": "GATGCTAGGTCAGGTTGGTCAGCTAACGGGTACG", "measuredProperty": "PBM binding z-score", "reported": -0.108}
{"chainSequence": "CGAACTTGGTCATCCAGGACAGTGAATACATTGA", "measuredProperty": "PBM binding z-score", "reported": -0.093}

Hey, just so you know, these numbers are from the supplement of paper PMC6555819.
